Provenance of the data: ChEMBL document CHEMBL1128371

system: Candida parapsilosis; assay: In vitro antifungal activity against Candida parapsilosis 39; assay type: functional; conditions: Lodderomyces parapsilosis
Please provide measured MIC for the entries that follow.

Bench note: what MIC did CC(C/C=C/C#CC(C)(C)N)Cc1cccc2ccccc12 (stereo unspecified) show?
> 100 µg/mL

Bench note: what MIC did CC(=O)NC(C)(C)C#C/C=C/CC(C)Cc1cccc2ccccc12 (stereo unspecified) show?
> 50 µg/mL

Bench note: what MIC did CN(C/C=C/c1ccccc1)Cc1cccc2ccccc12 [NAFTIFINE] show?
1.6 µg/mL

Bench note: what MIC did CC(C/C=C/C#CC(C)(C)[N+](C)(C)C)Cc1cccc2ccccc12 (stereo unspecified) show?
100 µg/mL

Bench note: what MIC did CC(C/C=C/C#CC(C)(C)C)Cc1cccc2ccccc12 (stereo unspecified) show?
> 100 µg/mL

Bench note: what MIC did CC(C/C=C/C#CC(C)(C)N(C)C)Cc1cccc2ccccc12 (stereo unspecified) show?
6.25 µg/mL

Bench note: what MIC did CC(C/C=C/C#CC(C)(C)CO)Cc1cccc2ccccc12 (stereo unspecified) show?
> 100 µg/mL

Bench note: what MIC did CNC(=O)C(C)(C)C#C/C=C/CC(C)Cc1cccc2ccccc12 (stereo unspecified) show?
> 100 µg/mL

Bench note: what MIC did CC(C/C=C/C#CC(C)(C)CN)Cc1cccc2ccccc12 (stereo unspecified) show?
> 50 µg/mL

Bench note: what MIC did CC(C/C=C/C#CC(C)(C)N(C)c1ccccc1)Cc1cccc2ccccc12 (stereo unspecified) show?
> 100 µg/mL

Bench note: what MIC did CN(C/C=C/C#CC(C)(C)C)Cc1cccc2ccccc12 [TERBINAFINE] show?
0.8 µg/mL

Bench note: what MIC did CC(C/C=C/C#CC(C)(C)C(N)=O)Cc1cccc2ccccc12 (stereo unspecified) show?
> 100 µg/mL

Bench note: what MIC did CC(C/C=C/C#CC(C)(C)C(=O)O)Cc1cccc2ccccc12 (stereo unspecified) show?
> 100 µg/mL

Bench note: what MIC did CC(C/C=C/C#CC(C)(C)C#N)Cc1cccc2ccccc12 (stereo unspecified) show?
> 100 µg/mL

Bench note: what MIC did CC(C/C=C/C#CC(C)(C)O)Cc1cccc2ccccc12 (stereo unspecified) show?
> 100 µg/mL

Bench note: what MIC did COC(=O)C(C)(C)C#C/C=C/CC(C)Cc1cccc2ccccc12 (stereo unspecified) show?
> 100 µg/mL
